Quick reference: self-cleavage of the listed items.
B1: Hairpin Ribozyme (parent)
chain: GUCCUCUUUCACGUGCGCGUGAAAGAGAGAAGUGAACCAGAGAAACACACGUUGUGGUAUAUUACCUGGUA

Variants of: B1
Test: self-cleavage, relative activity (ratio to wild type); higher = more cleavage; co-transcriptional
Number only, no unit.

Worked cases, self-cleavage given:
mutation id: A41G A61C
assay metric: self-cleavage
readout value: 0.299
--
mutation id: G32A A47C
assay metric: self-cleavage
readout value: 0.143
--
mutation id: G57A A64C
assay metric: self-cleavage
readout value: 0.118
--
mutation id: G40A U62A
assay metric: self-cleavage
readout value: 0.12
--
mutation id: A36U A39G
assay metric: self-cleavage
readout value: 0.344

IN: Would you mind telling me what self-cleavage value was observed for C4U C16U ?
OUT: 0.362

IN: Would you mind telling me what self-cleavage value was observed for A26U U70A ?
OUT: 0.575

IN: Would you mind telling me what self-cleavage value was observed for C50U U55G ?
OUT: 0.368

IN: Would you mind telling me what self-cleavage value was observed for G27U U63A ?
OUT: 0.0592

IN: Would you mind telling me what self-cleavage value was observed for C6A A26C ?
OUT: 0.418

IN: Would you mind telling me what self-cleavage value was observed for A31C A61C ?
OUT: 0.194

IN: Would you mind telling me what self-cleavage value was observed for G34U A43U ?
OUT: 0.0758

IN: Would you mind telling me what self-cleavage value was observed for U9G C50A ?
OUT: 0.24

IN: Would you mind telling me what self-cleavage value was observed for U33A G68A ?
OUT: 0.161
